Experiment: BSK_3C_SRB: Viability Assessment in the BioMAP Diversity Plus: 3C Assay (AID 2283023);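 further: fitted both ways against DMSO so a hit may be signal rise or drop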
Settings: primary human endothelial cells (HUVEC)
Method: BSK_3C is a cell-based, multiplexed-readout assay that uses umbilical vein endothelium, a human vascular primary cell, with measurements taken at 24 hours after chemical dosing in a 96-well plate.BSK_3C_SRB is an assay component measured in the BSK_3C assay. It measures 0.1% sulforhodamine related to cell death using Sulforhodamine staining technology.Data from the assay component BSK_3C_SRB was analyzed into 1 assay endpoint. […]
Active and inactive are the calls of the source. How the source made its calls: active means hit-call score of the fitted dose curve at least 0.9, where 1 is the maximum; inactive means score below 0.9.
measured.quantity: AC50

Example entries begin here.
compound: C=C[Si](OCC)(OCC)OCC
measured.quantity: AC50
result: inactive
--
compound: CCc1c(C)cc(N)c(CC)c1N
measured.quantity: AC50
result: inactive
--
compound: CC(=O)Nc1ccccc1O
measured.quantity: AC50
result: inactive
--
compound: Cc1cc(C2(c3cc(C)c(O)cc3C)OS(=O)(=O)c3ccccc32)c(C)cc1O
measured.quantity: AC50
result: inactive
--
compound: CC(=O)O[C@]1(C(C)=O)CC[C@H]2[C@@H]3C[C@H](C)C4=CC(=O)CC[C@]4(C)[C@H]3CC[C@@]21C
measured.quantity: AC50
result: inactive

Just so you know, measured AC50 for Cc1ccc(Nc2ccc(O)c3c2C(=O)c2ccccc2C3=O)cc1 came out at inactive

// field: AC50; key: CN(CCOc1ccc(CC2SC(=O)NC2=O)cc1)c1ccccn1 (centres undefined) ; value = inactive

Looking up CCCCCCCCCCCCCCCCCC(=O)OCC(CC)CCCC (centres undefined) , I found its AC50 recorded as inactive

AC50 reading for CCCCCCCCC=O : inactive

Input CCCCCCCCCC=O . Output AC50: inactive
